B1: library; numbered along this chain (parent)
chain: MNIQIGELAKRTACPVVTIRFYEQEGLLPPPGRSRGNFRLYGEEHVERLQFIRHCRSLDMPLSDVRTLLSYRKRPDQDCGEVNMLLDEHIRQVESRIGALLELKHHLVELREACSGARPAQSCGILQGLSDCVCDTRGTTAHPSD

# Variants of: B1
# assay-details: sfGFP reporter fluorescence (15 h) (µM FITC); higher = stronger transcriptional activation
# run-parameters: library round: Round 0; ligand: 30 µM Zn
reported-property: sfGFP reporter fluorescence

>>> recorded_result("MNIQIGELAKRTACPVVTIRFYEQEGLLPPPGRSRGNFRLYGEEHVERLQFIRHCRSLDMPLSDVRTLLSYRKRPDQDCGEVNMLLDEHIRQVESRIGALLELKHHLVELREACSGARPAQSCGILQGDSDCVCDTRGTTAHPSD [L129D]")
0.055
>>> recorded_result("MNIQIYELAKRTACPVVTIRFYEQEGLLPPPGRSRGNFRLYGEEHVERLQFIRHCRSLDMPLSDVRTLLSYRKRPDQDCGEVNMLLDEHIRQVESRIGALLELKHHLVELREACSGARPAQSCGILQGLSDCVCDTRGTTAHPSD [G6Y]")
0.066
>>> recorded_result("MNIQIGELAKRTACPVVTIRFYEQEGLLPPPGRSRGNFRLYGEEHVERLQFIRHCRSLDMPLSDVRTLLSYRKRPDQDCGEVNMLLDEHIRQVESRIGALLELKHHLVYLREACSGARPAQSCGILQGLSDCVCDTRGTTAHPSD [E109Y]")
1.46
>>> recorded_result("MNIQIGELAKRTACPVVTIRFYEQEGLLPPPGRSRGNFRLYGEEHVERLQFIRHCRSLDDPLSDVRTLLSYRKRPDQDCGEVNMLLDEHIRQVESRIGALLELKHHLVELREACSGARPAQSCGILQGLSDCVCDTRGTTAHPSD [M60D]")
0.063
>>> recorded_result("MNIQISELAKRTACPVVTIRFYEQEGLLPPPGRSRGNFRLYGEEHVERLQFIRHCRSLDMPLSDVRTLLSYRKRPDQDCGEVNMLLDEHIRQVESRIGALLELKHHLVELREACSGARPAQSCGILQGLSDCVCDTRGTTAHPSD [G6S]")
0.412
>>> recorded_result("MNIQIGELAKRTACWVVTIRFYEQEGLLPPPGRSRGNFRLYGEEHVERLQFIRHCRSLDMPLSDVRTLLSYRKRPDQDCGEVNMLLDEHIRQVESRIGALLELKHHLVELREACSGARPAQSCGILQGLSDCVCDTRGTTAHPSD [P15W]")
0.0663
